# system: T1, human αIIbβ3 integrin on transfected CHO K1 cells (human, UniProt P08514 32-1039; P05106 27-788)
# T1 construct: whole, on cells; CHO K1 cells transfected with human αIIb and β3 cDNA; about 30% of the cells expressed the receptor; also called platelet receptor; platelet integrin
# testDescription: Ac-GXGDSC peptide array, adhesion of αIIbβ3 CHO K1 cells
# Protocol: After 15-minute of incubation, cells (200,000/mL) were added to substrates in 24-well culture plates. After 2 hour incubation at 37° C. and 5% CO₂, media was exchanged for F-12K medium supplemented with 10% FBS, 1× penicillin/streptomycin and cRGDFG (SEQ ID NO: 12) (300 μM). […] The number of adherent cells per field of view was counted using Image J software. Cells were counted in at least three fields for each circle, and each experiment was repeated 3 times. […]
maleimide monolayer = not defined here
metricName: binding result

Examples with their reported binding result follow.
Ac-GPGDSC(maleimide monolayer)-NH2 (not fully specified; printed as Ac-GXGDSC; reading uncertain, Member of the Ac-GXGDSC library) [Ac-GXGDSC (SEQ ID NO: 26) with X = P, immobilized on a monolayer array]; no binding
Ac-GWGDSC(maleimide monolayer)-NH2 (reading uncertain; also: printed as Ac-GXGDSC, Member of the Ac-GXGDSC library) [Ac-GXGDSC (SEQ ID NO: 26) with X = W, immobilized on a monolayer array]; no binding
Ac-GMGDSC(maleimide monolayer)-NH2 (not fully specified; printed as Ac-GXGDSC; reading uncertain, Member of the Ac-GXGDSC library) [Ac-GXGDSC (SEQ ID NO: 26) with X = M, immobilized on a monolayer array]; no binding
Ac-GLGDSC(maleimide monolayer)-NH2 (not fully specified; printed as Ac-GLGDSC; reading uncertain, also called 0.5% Ac-GLGDSC; Ac-GXGDSC with X = Leu) [Ac-GLGDSC (SEQ ID NO: 34), immobilized on a monolayer array]; binds
Ac-GQGDSC(maleimide monolayer)-NH2 (not fully specified; printed as Ac-GXGDSC; reading uncertain, Member of the Ac-GXGDSC library) [Ac-GXGDSC (SEQ ID NO: 26) with X = Q, immobilized on a monolayer array]; no binding

Input line: Form field: reported binding result of Ac-GIGDSC(maleimide monolayer)-NH2 (not fully specified; printed as Ac-GIGDSC; reading uncertain, also called 0.5% Ac-GIGDSC; Ac-GXGDSC with X = Ile) [Ac-GIGDSC (SEQ ID NO: 33), immobilized on a monolayer array]
Output line: binds

Input line: Note, next up: Ac-GSGDSC(maleimide monolayer)-NH2 (not fully specified; printed as Ac-GXGDSC; reading uncertain, Member of the Ac-GXGDSC library) [Ac-GXGDSC (SEQ ID NO: 26) with X = S, immobilized on a monolayer array]
Output line: no binding

Input line: Next record, please: Ac-GVGDSC(maleimide monolayer)-NH2 (not fully specified; printed as Ac-GVGDSC; reading uncertain, also called 0.5% Ac-GVGDSC; Ac-GXGDSC with X = Val) [Ac-GVGDSC (SEQ ID NO: 32), immobilized on a monolayer array]
Output line: binds
